Recorded IC50 for the following molecules
# STUDY_TARGET: IKKε (Homo sapiens (Human))
# Sequence (Q14164 whole entry): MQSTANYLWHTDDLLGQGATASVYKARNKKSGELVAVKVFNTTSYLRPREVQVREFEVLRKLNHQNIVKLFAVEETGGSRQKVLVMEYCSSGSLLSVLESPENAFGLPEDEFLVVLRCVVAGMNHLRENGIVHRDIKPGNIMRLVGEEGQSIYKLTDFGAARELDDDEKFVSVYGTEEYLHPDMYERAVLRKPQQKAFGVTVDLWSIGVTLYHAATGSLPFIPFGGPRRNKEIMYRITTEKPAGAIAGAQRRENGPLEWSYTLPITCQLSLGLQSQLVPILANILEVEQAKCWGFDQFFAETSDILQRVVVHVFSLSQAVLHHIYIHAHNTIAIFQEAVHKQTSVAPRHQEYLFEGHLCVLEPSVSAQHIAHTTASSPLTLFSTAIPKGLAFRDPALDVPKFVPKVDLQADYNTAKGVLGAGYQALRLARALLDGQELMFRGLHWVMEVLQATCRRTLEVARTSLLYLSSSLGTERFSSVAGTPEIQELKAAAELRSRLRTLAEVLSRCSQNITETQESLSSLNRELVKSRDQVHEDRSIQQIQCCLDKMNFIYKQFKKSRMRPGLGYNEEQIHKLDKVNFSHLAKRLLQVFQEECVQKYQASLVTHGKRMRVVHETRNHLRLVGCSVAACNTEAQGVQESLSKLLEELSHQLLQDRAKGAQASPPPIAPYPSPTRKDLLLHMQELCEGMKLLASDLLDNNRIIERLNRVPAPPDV
# PROTOCOL_NOTES: IKKε TR-FRET enzymatic assay
# Format: biochemical
# RUN_PARAMETERS: read-out: IKKe IC50
Give the number; nM is assumed, so skip it.

{"MOLECULE": "C[C@@H]1CN(c2ccc(Nc3ncnc(-c4ccc(O[C@@H]5CCN(C(=O)[C@@H](C)O)CC5(F)F)c(C#N)c4)n3)cc2)CCN1C1COC1", "STUDY_TARGET": "IKKε (Homo sapiens (Human))", "READING_UNIT": "nM", "IC50": 397}
{"MOLECULE": "N#Cc1cc(-c2ncnc(Nc3ccc(N4CCN(C5COC5)CC4)cc3)n2)ccc1NC1CCOCC1", "STUDY_TARGET": "IKKε (Homo sapiens (Human))", "READING_UNIT": "nM", "IC50": 47}
{"MOLECULE": "CS(=O)(=O)c1ccc(Nc2ncnc(-c3ccc(OC4CCN(C(=O)CO)CC4)c(C#N)c3)n2)cc1", "STUDY_TARGET": "IKKε (Homo sapiens (Human))", "READING_UNIT": "nM", "IC50": 8}
{"MOLECULE": "C[C@H](O)C(=O)N1CC[C@H](Oc2ccc(-c3ncnc(Nc4ccc(N5CCN(C6(C)COC6)CC5)cc4)n3)cc2C#N)[C@H](F)C1", "STUDY_TARGET": "IKKε (Homo sapiens (Human))", "READING_UNIT": "nM", "IC50": 3}
{"MOLECULE": "N#Cc1cc(-c2ncnc(Nc3ccc(N4CCN(C5COC5)CC4)cc3)n2)ccc1O[C@@H]1CCN(C(=O)C(F)F)C1", "STUDY_TARGET": "IKKε (Homo sapiens (Human))", "READING_UNIT": "nM", "IC50": 91}

Consider the additional molecule presented here.
// returns IC50 for C[C@@H](O)C(=O)N1CCC(Oc2ccc(-c3ncnc(Nc4ccc(N5CCN(C6COC6)CC5)cc4)n3)cc2C#N)C(F)(F)C1 (stereo partly drawn) with IKKε (Homo sapiens (Human)); value = 14
